Measured IC50 accompanies every entry in the list below.
Test system: RKO;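 note: growth inhibition of human RKO cells, read out with a cell viability assay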
Test: cells
Type: functional, cell-based, Homo sapiens
Details: Homo sapiens, RKO
Description: SANGER: Inhibition of human RKO cell growth in a cell viability assay.
Report only the number, with the unit nM understood.

For record "COc1cccc2c1C(=O)c1c(O)c3c(c(O)c1C2=O)C[C@@](O)(C(=O)CO)C[C@@H]3O[C@H]1C[C@H](N)[C@H](O)[C@H](C)O1" the listed IC50 is 22.3

Others:
For record "N[C@@H](CSC(c1ccccc1)(c1ccccc1)c1ccccc1)C(=O)O" the listed IC50 is 677

For record "CC(=O)O[C@H]1C(=O)[C@@]2(C)[C@H]([C@H](OC(=O)c3ccccc3)[C@]3(O)C[C@H](OC(=O)[C@H](O)[C@@H](NC(=O)c4ccccc4)c4ccccc4)C(C)=C1C3(C)C)[C@]1(OC(C)=O)CO[C@@H]1C[C@@H]2O" the listed IC50 is 2.98
